Ref: patent US4239780A

As shown below, each of these compounds has a reported pIC50 value.
- tested-system: SNAKE VENOM PHOSPHOLIPASE A2
- experiment-summary: coupled phospholipase A2 / soybean lipoxygenase oxygen consumption assay, snake venom enzyme
- cond: estimated I50 calculated from a partial inhibition value, pH 8.5, 37° C.
pIC50: −log10 of the molar value. Structures can show the parent of a compound that is named as a salt.

compound: O=C(CCCN[C@H]1CC[C@](CO)(c2ccccc2)CC1)c1ccc(F)cc1 [I, hydrochloride]
pIC50: 3.66
--
compound: CO[C@]1(c2ccccc2C)CC[C@@H](NCCCC(=O)c2ccc(F)cc2)CC1 [C, hydrochloride]
pIC50: 3.52

* * *

- tested-system: HUMAN PLATELET PHOSPHOLIPASE A2 (Homo sapiens, UniProt P47712)
- Construct: Human blood was drawn from an antecubital vein into 3.8% sodium citrate; endogenous in cells; host or cells: human platelets in citrated plasma (PRP)
- Sequence (P47712 1-749): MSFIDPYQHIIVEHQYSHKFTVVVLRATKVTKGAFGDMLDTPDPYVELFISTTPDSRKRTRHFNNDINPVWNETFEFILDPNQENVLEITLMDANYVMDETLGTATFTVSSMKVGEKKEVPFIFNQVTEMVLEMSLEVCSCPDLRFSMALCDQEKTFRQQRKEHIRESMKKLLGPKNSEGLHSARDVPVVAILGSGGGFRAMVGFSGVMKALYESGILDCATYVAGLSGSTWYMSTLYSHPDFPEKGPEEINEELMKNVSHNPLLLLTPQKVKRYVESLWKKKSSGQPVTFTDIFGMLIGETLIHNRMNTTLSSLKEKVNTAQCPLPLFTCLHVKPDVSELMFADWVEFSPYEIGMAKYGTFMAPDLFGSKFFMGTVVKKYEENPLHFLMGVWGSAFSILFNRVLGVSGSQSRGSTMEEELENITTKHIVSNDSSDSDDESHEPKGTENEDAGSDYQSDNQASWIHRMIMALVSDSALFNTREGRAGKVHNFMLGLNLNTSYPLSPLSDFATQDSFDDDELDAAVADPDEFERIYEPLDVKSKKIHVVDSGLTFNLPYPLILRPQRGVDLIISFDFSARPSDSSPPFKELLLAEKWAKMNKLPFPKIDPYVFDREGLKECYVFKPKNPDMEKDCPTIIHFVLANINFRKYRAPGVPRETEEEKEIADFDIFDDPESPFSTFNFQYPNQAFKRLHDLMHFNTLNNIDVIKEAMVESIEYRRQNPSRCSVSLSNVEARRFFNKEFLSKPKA
- experiment-summary: inhibition of collagen-induced aggregation of human platelets
- Type: cell-based
- cond: human platelet rich plasma, read-out: I50 collagen (converted)
- Method: The compounds of the present invention were tested for their ability to inhibit collagen-induced aggregation of platelets at 100 μg. per ml. or less. The compounds that were active against collagen-induced aggregation were tested at the I50 dose against arachidonic acid-induced aggregation. Compounds that inhibited collagen-induced aggregation, but not arachidonic acid-induced aggregation, were reported as active phospholipase A2 inhibitors. The test was run as follows. […]
Structures can show the parent of a compound that is named as a salt.
The label class 1 is reserved for IC50 strictly under 70 µM; class 0 covers values equal to or above it.

compound: CN(CCCC(=O)c1ccc(F)cc1)[C@H]1CC[C@](CO)(c2ccccc2)CC1
tested-system: HUMAN PLATELET PHOSPHOLIPASE A2 (Homo sapiens, UniProt P47712)
label: class 1
//
compound: CO[C@]1(c2ccc(C)cc2)CC[C@H](NCCCC(=O)c2ccc(F)cc2)CC1 [D, hydrochloride]
tested-system: HUMAN PLATELET PHOSPHOLIPASE A2 (Homo sapiens, UniProt P47712)
label: class 0
//
compound: CO[C@]1(c2ccccc2C)CC[C@H](NCCCC(=O)c2ccc(F)cc2)CC1 [B, hydrochloride, hemihydrate]
tested-system: HUMAN PLATELET PHOSPHOLIPASE A2 (Homo sapiens, UniProt P47712)
label: class 0
//
compound: O=C(CCCN[C@H]1CC[C@](CO)(c2ccc(Cl)cc2)CC1)c1ccc(F)cc1 [G, hydrochloride]
tested-system: HUMAN PLATELET PHOSPHOLIPASE A2 (Homo sapiens, UniProt P47712)
label: class 0
//
compound: CO[C@]1(c2ccccc2C)CC[C@@H](NCCCC(=O)c2ccc(F)cc2)CC1 [C, hydrochloride]
tested-system: HUMAN PLATELET PHOSPHOLIPASE A2 (Homo sapiens, UniProt P47712)
label: class 0
